Assay read-out IC50; system under study: EGFR (UniProt P00533).
Sequence (P00533 whole entry, looked up): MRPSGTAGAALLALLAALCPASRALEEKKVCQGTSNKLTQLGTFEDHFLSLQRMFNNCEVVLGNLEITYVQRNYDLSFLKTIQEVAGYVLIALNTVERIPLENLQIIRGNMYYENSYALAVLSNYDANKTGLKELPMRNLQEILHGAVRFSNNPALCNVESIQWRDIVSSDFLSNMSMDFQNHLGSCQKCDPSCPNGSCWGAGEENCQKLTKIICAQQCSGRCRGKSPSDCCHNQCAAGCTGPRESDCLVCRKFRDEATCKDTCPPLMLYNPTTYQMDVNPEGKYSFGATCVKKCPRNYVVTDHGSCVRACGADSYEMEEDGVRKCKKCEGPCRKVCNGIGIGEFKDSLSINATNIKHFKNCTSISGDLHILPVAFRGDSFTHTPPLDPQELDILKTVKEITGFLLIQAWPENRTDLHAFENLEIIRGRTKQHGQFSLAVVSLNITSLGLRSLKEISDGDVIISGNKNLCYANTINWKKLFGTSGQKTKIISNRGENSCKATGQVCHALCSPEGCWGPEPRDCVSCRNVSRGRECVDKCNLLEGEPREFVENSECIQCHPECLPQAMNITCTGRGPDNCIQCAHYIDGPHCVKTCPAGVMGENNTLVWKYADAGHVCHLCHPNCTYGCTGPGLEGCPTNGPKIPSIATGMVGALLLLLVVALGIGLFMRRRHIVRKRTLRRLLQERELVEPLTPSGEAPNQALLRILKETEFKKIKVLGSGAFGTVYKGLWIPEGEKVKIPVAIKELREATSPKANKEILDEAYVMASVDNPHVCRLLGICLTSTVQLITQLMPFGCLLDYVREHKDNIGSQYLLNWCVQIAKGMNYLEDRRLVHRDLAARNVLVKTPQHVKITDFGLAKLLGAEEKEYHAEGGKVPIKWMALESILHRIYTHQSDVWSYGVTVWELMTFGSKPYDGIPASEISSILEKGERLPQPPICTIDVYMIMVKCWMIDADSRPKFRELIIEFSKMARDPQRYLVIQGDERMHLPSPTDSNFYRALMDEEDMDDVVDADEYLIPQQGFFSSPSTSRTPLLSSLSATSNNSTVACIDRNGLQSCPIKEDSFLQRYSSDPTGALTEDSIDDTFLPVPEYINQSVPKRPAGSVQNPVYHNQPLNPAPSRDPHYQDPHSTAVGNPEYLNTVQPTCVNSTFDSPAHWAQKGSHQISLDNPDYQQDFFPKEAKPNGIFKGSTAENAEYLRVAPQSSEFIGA

For orientation, consider the following solved cases.
>>> result("Oc1cccc(-c2cc3c(Nc4cccc(Cl)c4)ncnc3[nH]2)c1")
"< 5 nM"
>>> result("Brc1cccc(Nc2ncnc3ccccc23)c1")
"27 nM"
>>> result("Brc1cccc(Nc2nccc3ccccc23)c1")
"> 100000 nM"

Enquiry: Can you look up IC50 on EGFR (UniProt P00533) for Nc1ccc(-c2cc3c(Nc4cccc(Cl)c4)ncnc3[nH]2)cc1 ?
Return: < 5 nM

Enquiry: Find IC50 (EGFR (UniProt P00533)) for the entry Oc1ccc(-c2cc3c(Nc4cccc(Cl)c4)ncnc3[nH]2)cc1
Return: < 5 nM

These measurements were taken from the Kinase Knowledgebase extract (Sharma et al. 2016).
